- Test system: HCT-15 colon
- procedure-summary: NCI tumour cell line growth inhibition, 48 h; in the data active means GI50 below about 0.43 µM; inactive means the rest
Outcome codes: active, inactive

{"columns": ["compound", "classification"],
 "data": [
  ["COC(=O)[C@H](CCCCNC(=O)OCc1ccccc1)NC(=O)[C@@H](NC(=O)Nc1cc(C(F)(F)F)cc(C(F)(F)F)c1)C(C)C", "inactive"],
  ["C=CCN1C(=O)[C@]2(SC1=S)[C@H](c1cccc(Cl)c1)CN(C)[C@]21C(=O)NC2C=CC(Cl)=C[C@H]21 (stereo partly specified)", "inactive"],
  ["CN1/C(=C/C=C/c2n(Cc3ccc4ccccc4c3)c(Cl)c(Cl)[n+]2Cc2ccc3ccccc3c2)Oc2ccccc21", "inactive"],
  ["COc1cc(/C=C/c2ccnc3ccccc23)cc(OC)c1OC", "inactive"],
  ["CCC(C(=O)[C@@H](C)[C@@H](O)[C@H](C)[C@@H]1O[C@@H]([C@@H](CC)C(=O)ONC(=O)c2ccccc2)CC[C@@H]1C)[C@H]1O[C@]2(C=CC(=O)[C@]3(CC[C@@](C)([C@H]4CC[C@](O)(CC)[C@H](C)O4)O3)O2)[C@H](C)C[C@@H]1C (stereo partly specified)", "active"],
  ["CCOC(=O)c1cc(C(=O)c2cc(OC)c(OC)c(OC)c2)n2ccc(-c3cc[n+](CC(=O)c4cc(OC)c(OC)c(OC)c4)cc3)cc12", "inactive"],
  ["O=c1[nH]c2ccccc2n1C1CCN(CCOc2ccccc2)CC1", "inactive"],
  ["OCC1OC(n2cnc3c(NCc4ccco4)ncnc32)C(O)C1O (stereo unspecified)", "inactive"],
  ["C/C=C(\\C)C(=O)O[C@@H]1C=CC(=O)O[C@H]1CNC(=O)[C@H](C)O", "inactive"],
  ["CCOC(=O)c1cc2c(n1Cc1cc(OC)cc(OC)c1)-c1oncc1CC2", "active"],
  ["Nc1cc(N)c2nc(-c3ccccc3)c(NCc3ccc(Cl)c(Cl)c3)nc2c1", "inactive"],
  ["COc1ccc2c(c1)C(=O)c1c-2n(CCCCl)c(=O)c2cc(N)ccc12", "inactive"],
  ["Cc1nn(-c2ccccc2)c2nc(C)n(-c3ccc(Br)cc3)c(=O)c12", "active"],
  ["CC[Si](CC)(CC)OC1[C@@H](O[Si](CC)(CC)CC)[C@@H](CNC(=O)NC)O[C@H]1n1cnc2c(NC(=O)Nc3ccccc3)ncnc21 (stereo partly specified)", "inactive"],
  ["Cc1cc(OCc2nn(CN3CCN(C)CC3)c(=S)n2/N=C/c2ccc(F)cc2)ccc1Cl", "inactive"],
  ["CC1(C)CC[C@]2(CO)CC[C@]3(C)C(=CC[C@@H]4[C@@]5(C)CCNCC(C)(C)[C@@H]5CC[C@]43C)[C@@H]2C1", "inactive"]
]}
